Tested on: ATP;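 also: ATP exposure 15 min at 22 °C before imaging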
ASSAY_INFO: switch fluorescence ratio, 500 uM ATP over buffer (Cy3 cluster intensity, sum of 5 cycles each) (fold (ratio)); higher = stronger signal-on switching upon ATP binding; sequences stand for … in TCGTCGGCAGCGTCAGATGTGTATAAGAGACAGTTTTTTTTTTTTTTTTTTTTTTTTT…TC
MEASUREMENT_CONTEXT: aptamer strand: ATP DNA aptamer (quencher-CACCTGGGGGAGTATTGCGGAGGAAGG + anchor), 100 nM annealed; ATP concentration: 500 uM
Measured switch fluorescence ratio values are reported for all entries that follow.
Please reply with the number alone, leaving off any unit.

The cases that follow already have their switch fluorescence ratio on record.
{"columns": ["MONOMER_SEQUENCE", "switch fluorescence ratio"],
 "data": [
  ["AAGTTGGTGT", 1.02],
  ["ACTAGCGGCG", 1.05]
]}

Here's the next entry for you.
Task: Requested read-out: switch fluorescence ratio. Entry: AGTAAATTAT
Output: 1.03
